Assay: Assessment of solubility: HT solubility in pION buffer, UV spectrophotometry
Settings: pION system solution buffer, pH 4.5, pH 4.5, aqueous buffer, kinetic from dmso stock, Solubility (pH 4.5), pH 4.5 buffer, 16-19 h incubation, 1.0% DMSO
Please enter 1.0 where solubility is greater than or equal to 10 µg/mL, and 0.0 where it is lower.

Hi team, for Cc1ccc(OCc2ccc(C(=O)N3CCC(F)(F)CC3)cc2C)c(-c2csc(N3CCC(C(=O)O)CC3)n2)c1 , is the recorded solubility at or above 10 µg/mL? 0.0

Hi team, for CCOCCN(C)C(=O)c1ccc(COc2ccc(C)cc2-c2csc(N3C[C@H]4CC[C@@H](C3)[C@H]4C(=O)O)n2)c(C)c1 , is the recorded solubility at or above 10 µg/mL? 0.0

Hi team, for Cc1ccc(OCc2ccc(CNC(C)(C)CO)cc2C)c(-c2csc(N3CCC(C(=O)O)CC3)n2)c1 , is the recorded solubility at or above 10 µg/mL? 1.0

Hi team, for Cc1cc(CN2CCS(=O)(=O)CC2)ccc1COc1ccccc1-c1csc(N2CC3C(C2)C3C(=O)O)n1 (stereo not shown) , is the recorded solubility at or above 10 µg/mL? 1.0

Hi team, for Cc1ccc(OCc2ccc(C(=O)N3CCCCC3)cc2C)c(-c2csc(N3C[C@H]4C[C@@H](C3)[C@H]4C(=O)O)n2)c1 , is the recorded solubility at or above 10 µg/mL? 0.0

Hi team, for Cc1ccc(OCc2ccc(CN3CCN(S(C)(=O)=O)CC3)cc2C)c(-c2csc(N3CCC(C(=O)O)CC3)n2)c1 , is the recorded solubility at or above 10 µg/mL? 1.0

Consider the additional molecule presented here.
Hi team, for Cc1cc(CN2CCOCC2)ccc1COc1ccccc1-c1csc(N2CCC(C(=O)O)C(C)C2)n1 (stereo not shown) , is the recorded solubility at or above 10 µg/mL? 1.0
